# System: 388556-164-R-J1-PDC complex spheroid viability
# test_method_notes: Anticancer human tumor 388556-164-R-J1-PDC patient-derived colon adenocarcinoma cell line growth inhibition [RAS]
# particulars: second compound 0.00949 µM; first compound 0.0316 µM; hits give low values
// assign 1 if viability, T/C falls strictly below 80%, else -1 (ties count as -1)

molecule	target_or_system	assigned_category
CCC(CC)c1cc(NC2CCC(N)C2)n2nccc2n1 (stereo unspecified) + CCn1c(-c2cccnc2C(C)OC)c2c3cc(ccc31)N1CCOC(CC(NC(=O)C(C(C)C)N(C)C(=O)C3(F)CCN(C(=O)C#CC(C)(C)N(C)C)CC3)C(=O)N3CCCC(N3)C(=O)OCC(C)(C)C2)C1	388556-164-R-J1-PDC complex spheroid viability	-1

Read the next record carefully.
Strictly below 80%: is that where viability, T/C of C=CC(=O)Nc1cc(Nc2nccc(-c3cn(C)c4ccccc34)n2)c(OC)cc1N(C)CCN(C)C + CCn1c(-c2cc(N3CCN(C)CC3)cnc2C(C)OC)c2c3cc(ccc31)-c1csc(n1)CC(NC(=O)C1CC1C)C(=O)N1CCCC(N1)C(=O)OCC(C)(C)C2 sits? 1

---

# Tested on: 388556-164-R-J1-PDC complex spheroid viability
# test_method_notes: Anticancer human tumor 388556-164-R-J1-PDC cell line growth inhibition [RAS];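 note: spheroids exposed to compound for 7 days before readout; 100% = DMSO vehicle control luminescence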
# particulars: second compound 3.16 µM; first compound 0.1 µM; hits give low values
# From the text: RAS pathway inhibitors in Combinations in Complex Spheroids A high-throughput screen of multi-cell type tumor spheroids was designed to identify active combinations of RAS pathway inhibitors and targeted small molecules. Complex spheroids include a stromal component modeled by human endothelial cells (HUVEC) and fibroblasts modeled by human mesenchymal stem cells (MSCs). […] Compounds. […] If the clinical Cmax for an agent had not been determined, the highest concentration tested was 10 microM. […]
// viability, T/C lookup, one value per entry
State just the number; it will be interpreted in %.

Please review the following examples before continuing.
molecule	target_or_system	value_kind	result_value
CC(C)NCC(C(=O)N1CCN(c2ncnc3c2C(C)CC3O)CC1)c1ccc(Cl)cc1 (stereo not given) + C#Cc1c(F)ccc2cc(O)cc(-c3ncc4c(N5CC6CCC(C5)N6)nc(OCC56CCCN5CC(F)C6)nc4c3F)c12	388556-164-R-J1-PDC complex spheroid viability	viability, T/C	66.6
CC(C)n1nc(-c2ccc3oc(N)nc3c2)c2c(N)ncnc21 + C#Cc1c(F)ccc2cc(O)cc(-c3ncc4c(N5CC6CCC(C5)N6)nc(OCC56CCCN5CC(F)C6)nc4c3F)c12	388556-164-R-J1-PDC complex spheroid viability	viability, T/C	31.4
CCC(CC)c1cc(NC2CCC(N)C2)n2nccc2n1 (stereo not given) + C#Cc1c(F)ccc2cc(O)cc(-c3ncc4c(N5CC6CCC(C5)N6)nc(OCC56CCCN5CC(F)C6)nc4c3F)c12	388556-164-R-J1-PDC complex spheroid viability	viability, T/C	69.7
Nc1ccn(C2OC(CO)C(O)C2(F)F)c(=O)n1 (stereo not given) + C#Cc1c(F)ccc2cc(O)cc(-c3ncc4c(N5CC6CCC(C5)N6)nc(OCC56CCCN5CC(F)C6)nc4c3F)c12	388556-164-R-J1-PDC complex spheroid viability	viability, T/C	67.1

Turning to the following molecule.
response.value for O=C(c1ccc(F)c(F)c1Nc1ccc(I)cc1F)N1CC(O)([C@@H]2CCCCN2)C1 + C#Cc1c(F)ccc2cc(O)cc(-c3ncc4c(N5CC6CCC(C5)N6)nc(OCC56CCCN5CC(F)C6)nc4c3F)c12 (field: viability, T/C) = 51.5
